Just for reference, patent US9447029B2 is where these values come from.

system: UniProtKB P10635
Sequence (P10635 whole entry): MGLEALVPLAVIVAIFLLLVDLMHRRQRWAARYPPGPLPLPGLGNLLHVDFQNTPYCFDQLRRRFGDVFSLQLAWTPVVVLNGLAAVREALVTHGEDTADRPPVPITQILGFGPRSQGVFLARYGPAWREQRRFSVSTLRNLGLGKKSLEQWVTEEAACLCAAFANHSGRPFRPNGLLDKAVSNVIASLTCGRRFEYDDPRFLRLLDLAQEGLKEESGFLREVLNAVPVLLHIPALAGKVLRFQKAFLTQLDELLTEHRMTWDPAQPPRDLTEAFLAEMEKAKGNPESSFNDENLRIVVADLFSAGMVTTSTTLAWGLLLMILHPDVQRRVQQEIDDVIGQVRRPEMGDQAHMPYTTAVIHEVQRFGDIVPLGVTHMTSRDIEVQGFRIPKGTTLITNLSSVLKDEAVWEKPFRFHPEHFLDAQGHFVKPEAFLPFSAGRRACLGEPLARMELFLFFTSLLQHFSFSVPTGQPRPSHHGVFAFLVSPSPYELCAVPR
protocol.notes: Inhibition of Cytochrome P4502D6 (CYP2D6) using Supersomes
Format: in vitro ADME
experimental.parameters: AMMC substrate, reference standards of the closest prior art, read-out: IC50 (Corresponding de-fluorinated derivative)
Structures can show the parent of a compound that is named as a salt.
parameter: log10 of IC50 (log10 of the value in µM)
// stored as log10 of IC50 expressed in µM

For orientation, consider the following solved cases.
CCCCOc1cccc(CCN(CCCOC)CC(=O)N(C)C)c1 [hydrochloride] | 0.86
CCCCOc1cccc(CCNCC(=O)N(CCC)CCC)c1 [hydrochloride] | -0.15
CN(C)C(=O)CNCCc1cccc(OCc2ccccc2)c1 [hydrochloride] | 1.03

Q. Return log10 of IC50 measured with UniProtKB P10635 given this compound: CCCCOc1cccc(CCNCC(=O)N2CCCCC2)c1 [hydrochloride]
A. 0.04

Q. Return log10 of IC50 measured with UniProtKB P10635 given this compound: CCCCOc1cccc(CCNCC(=O)N2CCCC2)c1 [hydrochloride]
A. 0.48

Q. Return log10 of IC50 measured with UniProtKB P10635 given this compound: CCCCOc1cccc(CCNC(C)C(=O)N(C)C)c1 (stereo not shown) [hydrochloride]
A. 0.76

Q. Return log10 of IC50 measured with UniProtKB P10635 given this compound: O=C(CNCCc1cccc(OCCCC(F)(F)F)c1)N1CCOCC1 [hydrochloride]
A. 0.26

Q. Return log10 of IC50 measured with UniProtKB P10635 given this compound: CCCCCOc1cccc(CCNCC(=O)N(C)C)c1 [hydrochloride]
A. 0.54

Q. Return log10 of IC50 measured with UniProtKB P10635 given this compound: CCCCCCOc1cccc(CCNCC(=O)N(C)C)c1 [hydrochloride]
A. -0.05

Q. Return log10 of IC50 measured with UniProtKB P10635 given this compound: CCCCOc1cccc(CCNCC(=O)N(C)C)c1 [hydrochloride]
A. 0.76

Q. Return log10 of IC50 measured with UniProtKB P10635 given this compound: O=C(CNCCc1cccc(OCCCC(F)(F)F)c1)N1CCCC1 [hydrochloride]
A. 0.70

Q. Return log10 of IC50 measured with UniProtKB P10635 given this compound: CCCCOc1cccc(CCN(CCOC)CC(=O)N(C)C)c1 [hydrochloride]
A. 0.53

Q. Return log10 of IC50 measured with UniProtKB P10635 given this compound: CCCCOc1cccc(CCNCC(=O)N(CC)CC)c1 [hydrochloride]
A. 0.40
